- Tested on: MDA-MB-231
- experiment.summary: Antiproliferative activity against human MDA-MB-231 cells by MTT assay
- Format: functional, cell-based
pIC50: −log10 of the molar value.
pIC50 for assorted molecules

- structure: "COC(=O)/C(=C/C(=C\\c1cccc2ccccc12)[N+](=O)[O-])SC"
  pIC50: 6.05
- structure: "O=[N+]([O-])C(=C/c1cccc2ccccc12)/C(=C\\c1cccc2ccccc12)[N+](=O)[O-]"
  pIC50: 5.03

====

- Test system: HCT-8
- experiment.summary: Antiproliferative activity against human HCT8 cells by MTT assay
- Type: functional, cell-based
pIC50: −log10 of the molar value.
pIC50 for assorted molecules

- structure: "COC(=O)/C(=C/C(=C\\c1cccc2ccccc12)[N+](=O)[O-])SC"
  target.of.assay: "HCT-8"
  pIC50: 4.90
- structure: "O=[N+]([O-])C(=C/c1cccc2ccccc12)/C(=C\\c1cccc2ccccc12)[N+](=O)[O-]"
  target.of.assay: "HCT-8"
  pIC50: 5.01
